These measurements were taken from the supplement of paper PMC10724198.

test system: Saccharomyces cerevisiae; assay: protein stability index of tFT-peptide fusion (C-terminal peptide) (PSI (0-1 scale)); higher = more stable (slower turnover); conditions: genetic background: das1 deletion; temperature: 30 C
measured parameter: protein stability index
Give bare numbers.

# sequence, protein stability index
rows = [
    ("CADCGTILNNFR [DGR2 C-terminal 12 aa]", 0.731),
    ("LEDSTRVYSNLM [ARP1 C-terminal 12 aa]", 0.693),
    ("FFLRSAAVYQPF [YPR197C C-terminal 12 aa]", 0.695),
    ("RSHRKQPLKRKD [BRE5 C-terminal 12 aa]", 0.69),
    ("TSCNLNSSVVRS [YOR186C-A C-terminal 12 aa]", 0.708),
    ("KTIDNLKALMKN [PFD1 C-terminal 12 aa]", 0.696),
    ("TLHDDRESKSED [CMK2 C-terminal 12 aa]", 0.683),
    ("DTDGAKISIINN [FKH2 C-terminal 12 aa]", 0.702),
]

I have 7 sequences here; please give me protein stability index for each one.
1. FVLPTWAAKELN [SPE3 C-terminal 12 aa]
2. AINEGHEGFGLA [TOM1 C-terminal 12 aa]
3. NPTIGRDSKKAV [PEX30 C-terminal 12 aa]
4. RVSLEKEAKQHG [ERV2 C-terminal 12 aa]
5. AWAKKLKSMRRS [TAM41 C-terminal 12 aa]
6. EADFRKRFPSKV [PRK1 C-terminal 12 aa]
7. LQMVKNAKDLST [CYR1 C-terminal 12 aa]

1. 0.719
2. 0.663
3. 0.694
4. 0.715
5. 0.709
6. 0.694
7. 0.687

I have 4 sequences here; please give me protein stability index for each one.
1. IKAAIDRVDHSL [YKR018C C-terminal 12 aa]
2. EPAYDGASVEQQ [THR1 C-terminal 12 aa]
3. KKHDWSDISQLW [OSH3 C-terminal 12 aa]
4. TNVGLKLIAIAK [PPM2 C-terminal 12 aa]

0.678
0.688
0.728
0.655

I have 5 sequences here; please give me protein stability index for each one.
1. ETNNVFQDAILR [DOC1 C-terminal 12 aa]
2. SVPKPSQARFSV [UTR1 C-terminal 12 aa]
3. EDGDNWEVVGKK [TIF3 C-terminal 12 aa]
4. SGSRVVRKLFEL [FUS2 C-terminal 12 aa]
5. KFFLTISADVSF [YNL057W C-terminal 12 aa]

1. 0.698
2. 0.684
3. 0.706
4. 0.696
5. 0.637

So what's the measured protein stability index for this one? LRTVASRLKERY [PNO1 C-terminal 12 aa]
0.698

* * *

system: Saccharomyces cerevisiae; assay: protein stability index of tFT-peptide fusion (C-terminal peptide) (PSI (0-1 scale)); higher = more stable (slower turnover); conditions: genetic background: das1 deletion; temperature: 37 C
Would you kindly list protein stability index for each of these sequences?
One number for each entry.

# sequence, meas value
measured = [
    ("RVSIIYLGVLIS", 0.436),
    ("RKNIKISKAGIG", 0.377),
    ("LWLVSLLVLWLT", 0.439),
]

I have 5 sequences here; please give me protein stability index for each one.
1. RIEGTLTARTAF
2. PHGASLCVPPSP
3. AFFRCKCYVGTP
4. WVLFRLPYQFFS
5. ALNFFSLFMLFR

0.744
0.727
0.598
0.737
0.422

* * *

test system: Saccharomyces cerevisiae; assay: protein stability index of tFT-peptide fusion (C-terminal peptide) (PSI (0-1 scale)); higher = more stable (slower turnover); settings: genetic background: doa10 deletion; temperature: 30 C
Classification field: enter t for protein stability index values not below 0.2, f for values below it.

# sequence, qualitative label
data = [
    ("CFFLLLRVSLFP", "f"),
    ("LCSCAVVICCSL", "t"),
    ("VGLWCWSFVLVW", "f"),
    ("ASVCLNVIYQLV", "f"),
    ("MMEMMTKSNRIP", "t"),
    ("RLVCPFYIACVW", "t"),
]

Quick check, protein stability index >= 0.2? LCFTSVFTLFIC
f

Quick check, protein stability index >= 0.2? CKGPPVKFIVLM
f

Quick check, protein stability index >= 0.2? FVVQSLNQMRLN
t

Quick check, protein stability index >= 0.2? HNQDKNVKYKIG
t

Quick check, protein stability index >= 0.2? SRGRVLRLLLLV
f

Quick check, protein stability index >= 0.2? LRCCGALPLYAY
f

Quick check, protein stability index >= 0.2? KIHILVVQIATR
f

Quick check, protein stability index >= 0.2? IIVLNIGSVIFC
t

Quick check, protein stability index >= 0.2? RKRTILVIIVVK
f

Quick check, protein stability index >= 0.2? FQWILYIAKRVV
t

Quick check, protein stability index >= 0.2? GKWFSWNAIWIR
t

Quick check, protein stability index >= 0.2? FCTSSRLLYCSA
f

Quick check, protein stability index >= 0.2? FLLYSILLAFLL
t

Quick check, protein stability index >= 0.2? RTWLHLVVPVWG
f

Quick check, protein stability index >= 0.2? WFLMVILYTVYG
f

Quick check, protein stability index >= 0.2? PHGASLCVPPSP
t

Quick check, protein stability index >= 0.2? VRFPVFFIILFL
t

Quick check, protein stability index >= 0.2? HRNILSIIIKNL
f

Quick check, protein stability index >= 0.2? VFFCLFWFFCSF
t

Quick check, protein stability index >= 0.2? DIRLWISCTLWF
t

* * *

Would you kindly list protein stability index for each of these sequences?
tested on: Saccharomyces cerevisiae; assay: protein stability index of tFT-peptide fusion (C-terminal peptide) (PSI (0-1 scale)); higher = more stable (slower turnover); conditions: genetic background: wild type; temperature: 30 C
Answers are plain numbers.

# sequence, protein stability index
data = [
    ("RKRKQSKSGLLL [NOP8 C-terminal 12 aa]", 0.699),
    ("AYECAKHFLMKN [MRS4 C-terminal 12 aa]", 0.528),
    ("AREQLYEKLEQA [MIC27 C-terminal 12 aa]", 0.672),
    ("NGLNWEVIEYHA [HRI1 C-terminal 12 aa]", 0.713),
    ("LEKLLKTVLNTL [ORC2 C-terminal 12 aa]", 0.696),
]

I have 5 sequences here; please give me protein stability index for each one.
1. RLQAMLNSSSSI [CEF1 C-terminal 12 aa]
2. DNEGSRKMLKIE [CIN8 C-terminal 12 aa]
3. SNRILALGYILL [ATG32 C-terminal 12 aa]
4. QHIKTHKKHGDI [MSN2 C-terminal 12 aa]
5. SPPEEESQHGDV [SHB17 C-terminal 12 aa]

0.669
0.662
0.658
0.667
0.75

I have 2 sequences here; please give me protein stability index for each one.
1. NPTIGRDSKKAV [PEX30 C-terminal 12 aa]
2. NYDLQKLYDKID [QDR3 C-terminal 12 aa]

1. 0.702
2. 0.654

* * *

system: Saccharomyces cerevisiae; assay: protein stability index of tFT-peptide fusion (C-terminal peptide) (PSI (0-1 scale)); higher = more stable (slower turnover); conditions: genetic background: wild type; temperature: 30 C
measured parameter: protein stability index
One number for each entry.

I have 8 sequences here; please give me protein stability index for each one.
1. DTDGAKISIINN [FKH2 C-terminal 12 aa]
2. AKNGDYVKIEQP [YMR315W C-terminal 12 aa]
3. VGVERLLNDRFR [ARP4 C-terminal 12 aa]
4. LQMVKNAKDLST [CYR1 C-terminal 12 aa]
5. GKEVRKLRPENQ [ILV5 C-terminal 12 aa]
6. IREFPEYFAAQA [RPL10 C-terminal 12 aa]
7. ENKLWNTEYFFC [ECM34 C-terminal 12 aa]
8. RWFKKKKETGGS [BUD2 C-terminal 12 aa]

0.703
0.729
0.695
0.694
0.654
0.671
0.665
0.719

I have 4 sequences here; please give me protein stability index for each one.
1. KGDNITLITSAD [SME1 C-terminal 12 aa]
2. ESEKELYNATLA [NHP6A C-terminal 12 aa]
3. TRPPCSPIAGYA [YOR345C C-terminal 12 aa]
4. EMRKRFFEKDLL [RAP1 C-terminal 12 aa]

0.685
0.718
0.628
0.723

* * *

system: Saccharomyces cerevisiae; experiment: protein stability index of tFT-peptide fusion in deletion strain of DOA10 (PSI (0-1 scale)); higher = more stable (slower turnover)
Would you kindly list protein stability index for each of these sequences?
One number for each entry.

// solved cases for protein stability index follow
# sequence, protein stability index
rows = [
    ("RSLRVLLPLYFRT", 0.655),
    ("GLYMCSVCCWFR", 0.548),
    ("AILLPMCPLLLR", 0.612),
    ("RSLRVLLPLYAR", 0.474),
    ("GLYMLSVGCWFR", 0.464),
    ("AITLPSCPLLLR", 0.669),
    ("RVTRLDAWYFRI", 0.717),
    ("RSLRVLLPLRFR", 0.661),
    ("GLYICSVGCWFR", 0.539),
    ("GLYMCSVGGWFR", 0.674),
]

I have 2 sequences here; please give me protein stability index for each one.
1. RSLRVLLPLYFRI
2. RVTRLDAIYPRI

[0.484, 0.731]

I have 7 sequences here; please give me protein stability index for each one.
1. GLYMCSVGHWFR
2. RVTRLDAIKFRI
3. RMLRVLLPLYFR
4. GSLRVLLPLYFR
5. RSLRMLLPLYFR
6. RSLGVLLPLYFR
7. GLYLCSVGCWFR

[0.679, 0.685, 0.656, 0.685, 0.615, 0.691, 0.575]
